Reference source: paper PMC12830165

targetOfAssay: ORC1-5 (WT, ORC1ΔN) (human, UniProt Q13415;Q13416;Q9UBD5;O43929;O43913 400-861;1-577;1-711;1-436;1-435, N78S)
experimentDescription: fluorescence anisotropy; 1 mM ATP, 10 mM Mg acetate; 25 mM HEPES-KOH pH 7.6, 300 mM K glutamate, 10% glycerol, 1 mM DTT, 10 mM Mg acetate, 0.01% NP-40, 0 or 1 mM ATP, 1 nM DNA, 30 min at 22 °C; Hill fit (Kd,app)
measurementConditions: protein: recombinant; tags: 6xHis-TEV (ORC1) and MBP-TEV (ORC4), cleaved by TEV; copies: 1;1;1;1;1; label: 5' fluorescein-T on strand 1; blunt (40 bp; possible 1 nt 5' FluorT overhang)
metric: Kd (nM)
The response must be a number in nM with no trailing unit.

Request: Please report Kd for the following binder: 40 bp fluorescein dsDNA (dsDNA) DNA 1: TTTTGAAAAGCAAGCATAAAAGATCTAAACATAAAATCTG DNA 2: CAGATTTTATGTTTAGATCTTTTATGCTTGCTTTTCAAAA
Result: 37.6
